Let's look at some molecules and their measured T/C.
Test system: CD2F1 mice, L1210 leukemia ip, survival T/C
method: NCI In Vivo Anticancer Drug Screen. Data for tumor model L1210 Leukemia (intraperitoneal) in CD2F1 (CDF1) mice
conditionLabel: endpoint: mean survival time; dose: 25.0 mg/kg/injection; schedule: Q01DX009 (ip); vehicle: Klucel (hydroxypropylcellulose) (HPC); higher = longer survival
Toxic doses and inconclusive results are not listed.

# annotated cases, reported T/C shown
molecule: C=C1CC(O)C2C(=C)C(=O)OC2C2C(C)C(=O)CC12 (stereo unspecified)
targetSystem: CD2F1 mice, L1210 leukemia ip, survival T/C
T/C: 105 % of control
//
molecule: [Br][Pt+2][Br].[NH-]CC(=O)O.[NH-]CC(=O)O
targetSystem: CD2F1 mice, L1210 leukemia ip, survival T/C
T/C: 101 % of control
//
molecule: S=P(c1ccccc1)(N1CC1)N1CC1
targetSystem: CD2F1 mice, L1210 leukemia ip, survival T/C
T/C: 104 % of control
//
molecule: c1ccc(-c2c3ccccc3c(-c3ccccc3)c3c2ccc2ccccc23)cc1
targetSystem: CD2F1 mice, L1210 leukemia ip, survival T/C
T/C: 91 % of control
//
molecule: CC1OC(C)(C)OC1C(=O)OCc1ccccc1 (stereo unspecified)
targetSystem: CD2F1 mice, L1210 leukemia ip, survival T/C
T/C: 96 % of control

Now consider the entry below.
Given Clc1ncnc2c1ncn2CCCn1cnc2c(Cl)ncnc21 , state its recorded T/C.
90 % of control
